Assay: Inhibition of beta-lactamase PDC-3 (unknown origin)
Design: species or system Bacteria
metric: Ki (nM)

>>> assay_value("O=C(Cc1cccs1)N[C@@H](Cn1cc(-c2cccc(C(=O)O)c2)nn1)B(O)O")
8

###

Assay: Inhibition of beta-lactamase KPC-2 (unknown origin)
Set-up: species or system Bacteria
Each entry below carries its recorded IC50.
metric: IC50 (nM)

>>> assay_value("O=C(Cc1cccs1)N[C@@H](Cn1cc(-c2cccc(C(=O)O)c2)nn1)B(O)O")
40
>>> assay_value("O=C(Cc1cccs1)N[C@H](B(O)O)c1cccc(C(=O)O)c1")
60

###

Experiment: Inhibition of bacterial beta-lactamase KPC-2 expressed in Escherichia coli BL21 (DE3) using nitrocefin as substrate assessed as inhibition constant by Cheng-Prusoff equation analysis
Design: species or system Bacteria
Friendly reminder: Ki below 800 nM is yes (1), at or above is no (0).

>>> category_label("OB(O)c1ccc(Cn2cc(-c3ccsc3)nn2)cc1")
"yes (1)"
>>> category_label("OB(O)c1cc(Cn2cc(-c3ccsc3)nn2)ccc1F")
"yes (1)"
>>> category_label("[N-]=[N+]=NCc1ccc(F)c(B(O)O)c1")
"yes (1)"
>>> category_label("OB(O)c1cccc(-n2cc(-c3cccs3)nn2)c1")
"yes (1)"
>>> category_label("O=C(Nc1cccc(B(O)O)c1)c1ccsc1")
"no (0)"
>>> category_label("[N-]=[N+]=Nc1cc(B(O)O)c(F)cc1F")
"no (0)"
>>> category_label("COc1ccc(-c2cn(Cc3cccc(B(O)O)c3)nn2)cc1")
"no (0)"
>>> category_label("OB(O)c1cccc(Cn2cc(-c3ccccc3)nn2)c1")
"yes (1)"
>>> category_label("OB(O)c1cccc(-n2cc(C3CC3)nn2)c1")
"yes (1)"
>>> category_label("O=C(Nc1cccc(B(O)O)c1)c1cccs1")
"no (0)"
>>> category_label("CC(C)(C)c1cn(-c2cccc(B(O)O)c2)nn1")
"yes (1)"
>>> category_label("[N-]=[N+]=Nc1cc(F)c(F)c(B(O)O)c1")
"no (0)"
